# Test system: H3255
# measurement protocol: relative viability (nuclei count vs DMSO), 5 days (fraction); higher = more cells survive
# study conditions: first compound 0.04 µM
Consider the cut-off 0.5. If the recorded relative viability is strictly smaller, the label is rule met; if not, the label is rule not met.

molecule: O=C(O)c1ccc(-c2c[nH]c3ncc(-c4ccccc4)cc23)cc1C1CCCC1 + O=C(c1cc(Cc2n[nH]c(=O)c3ccccc23)ccc1F)N1CCN(C(=O)C2CC2)CC1 [Olaparib] (partner 8 µM)
group: rule not met
//
molecule: O=C(O)c1ccc(-c2c[nH]c3ncc(-c4ccccc4)cc23)cc1C1CCCC1 + Nc1nc2[nH]cc(CCc3ccc(C(=O)N[C@@H](CCC(=O)O)C(=O)O)cc3)c2c(=O)[nH]1 [Pemetrexed] (partner 0.2 µM)
group: rule met
//
molecule: O=C(O)c1ccc(-c2c[nH]c3ncc(-c4ccccc4)cc23)cc1C1CCCC1 + Cc1nc(Nc2ncc(C(=O)Nc3c(C)cccc3Cl)s2)cc(N2CCN(CCO)CC2)n1 [Dasatinib] (partner 0.075 µM)
group: rule met
//
molecule: O=C(O)c1ccc(-c2c[nH]c3ncc(-c4ccccc4)cc23)cc1C1CCCC1 + Cc1nc(NC(=O)N2CCC[C@H]2C(N)=O)sc1-c1ccnc(C(C)(C)C(F)(F)F)c1 [Alpelisib] (partner 2 µM)
group: rule not met
//
molecule: O=C(O)c1ccc(-c2c[nH]c3ncc(-c4ccccc4)cc23)cc1C1CCCC1 + O=C(CCCCCCC(=O)Nc1ccccc1)NO [Vorinostat] (partner 1 µM)
group: rule not met
//
molecule: O=C(O)c1ccc(-c2c[nH]c3ncc(-c4ccccc4)cc23)cc1C1CCCC1 + Cc1cc(Nc2cc(N3CCN(C)CC3)nc(Sc3ccc(NC(=O)C4CC4)cc3)n2)n[nH]1 [Tozasertib] (partner 0.1 µM)
group: rule not met
//
molecule: O=C(O)c1ccc(-c2c[nH]c3ncc(-c4ccccc4)cc23)cc1C1CCCC1 + CC1(C)CCC(c2ccc(Cl)cc2)=C(CN2CCN(c3ccc(C(=O)NS(=O)(=O)c4ccc(N[C@H](CCN5CCOCC5)CSc5ccccc5)c(S(=O)(=O)C(F)(F)F)c4)cc3)CC2)C1 [Navitoclax] (partner 0.5 µM)
group: rule not met

###

# Tested on: NCI-H1793
# measurement protocol: relative viability (nuclei count vs DMSO), 5 days (fraction); higher = more cells survive
# study conditions: first compound 0.005 µM
Below: a set of entries, each annotated with reported relative viability.

molecule: CC1(C)CCC(c2ccc(Cl)cc2)=C(CN2CCN(c3ccc(C(=O)NS(=O)(=O)c4ccc(N[C@H](CCN5CCOCC5)CSc5ccccc5)c(S(=O)(=O)C(F)(F)F)c4)cc3)CC2)C1 [Navitoclax] + Cc1cc(Nc2cc(N3CCN(C)CC3)nc(Sc3ccc(NC(=O)C4CC4)cc3)n2)n[nH]1 [Tozasertib] (partner 0.1 µM)
relative viability: 0.338

molecule: CC1(C)CCC(c2ccc(Cl)cc2)=C(CN2CCN(c3ccc(C(=O)NS(=O)(=O)c4ccc(N[C@H](CCN5CCOCC5)CSc5ccccc5)c(S(=O)(=O)C(F)(F)F)c4)cc3)CC2)C1 [Navitoclax] + O=C(CCCCCCC(=O)Nc1ccccc1)NO [Vorinostat] (partner 1 µM)
relative viability: 0.744

molecule: CC1(C)CCC(c2ccc(Cl)cc2)=C(CN2CCN(c3ccc(C(=O)NS(=O)(=O)c4ccc(N[C@H](CCN5CCOCC5)CSc5ccccc5)c(S(=O)(=O)C(F)(F)F)c4)cc3)CC2)C1 [Navitoclax] + Cc1nc(NC(=O)N2CCC[C@H]2C(N)=O)sc1-c1ccnc(C(C)(C)C(F)(F)F)c1 [Alpelisib] (partner 2 µM)
relative viability: 0.772

molecule: CC1(C)CCC(c2ccc(Cl)cc2)=C(CN2CCN(c3ccc(C(=O)NS(=O)(=O)c4ccc(N[C@H](CCN5CCOCC5)CSc5ccccc5)c(S(=O)(=O)C(F)(F)F)c4)cc3)CC2)C1 [Navitoclax] + Nc1nc2[nH]cc(CCc3ccc(C(=O)N[C@@H](CCC(=O)O)C(=O)O)cc3)c2c(=O)[nH]1 [Pemetrexed] (partner 0.2 µM)
relative viability: 0.72

molecule: CC1(C)CCC(c2ccc(Cl)cc2)=C(CN2CCN(c3ccc(C(=O)NS(=O)(=O)c4ccc(N[C@H](CCN5CCOCC5)CSc5ccccc5)c(S(=O)(=O)C(F)(F)F)c4)cc3)CC2)C1 [Navitoclax] + Nc1ncn([C@H]2C[C@H](O)[C@@H](CO)O2)c(=O)n1 [Decitabine] (partner 2 µM)
relative viability: 0.448

molecule: CC1(C)CCC(c2ccc(Cl)cc2)=C(CN2CCN(c3ccc(C(=O)NS(=O)(=O)c4ccc(N[C@H](CCN5CCOCC5)CSc5ccccc5)c(S(=O)(=O)C(F)(F)F)c4)cc3)CC2)C1 [Navitoclax] + COc1cc2c(Oc3ccc(NC(=O)C4(C(=O)Nc5ccc(F)cc5)CC4)cc3F)ccnc2cc1OCCCN1CCOCC1 [Foretinib] (partner 0.25 µM)
relative viability: 0.616

molecule: CC1(C)CCC(c2ccc(Cl)cc2)=C(CN2CCN(c3ccc(C(=O)NS(=O)(=O)c4ccc(N[C@H](CCN5CCOCC5)CSc5ccccc5)c(S(=O)(=O)C(F)(F)F)c4)cc3)CC2)C1 [Navitoclax] + CC(=O)c1c(C)c2cnc(Nc3ccc(N4CCNCC4)cn3)nc2n(C2CCCC2)c1=O [Palbociclib] (partner 0.5 µM)
relative viability: 0.312

###

# Test system: HARA
# measurement protocol: relative viability (nuclei count vs DMSO), 5 days (fraction); higher = more cells survive
# study conditions: first compound 0.253 µM
Entries and their measured relative viability follow.
assay endpoint: relative viability

molecule: C=C1C(=O)O[C@@H](CCCCCCCC)[C@@H]1C(=O)O [C-75] + CC1(C)CCC(c2ccc(Cl)cc2)=C(CN2CCN(c3ccc(C(=O)NS(=O)(=O)c4ccc(N[C@H](CCN5CCOCC5)CSc5ccccc5)c(S(=O)(=O)C(F)(F)F)c4)cc3)CC2)C1 [Navitoclax] (partner 0.5 µM)
observed: 1.26
--
molecule: C=C1C(=O)O[C@@H](CCCCCCCC)[C@@H]1C(=O)O [C-75] + O=C(CCCCCCC(=O)Nc1ccccc1)NO [Vorinostat] (partner 1 µM)
observed: 0.258
--
molecule: Oc1nc(-c2ccc(C(F)(F)F)cc2)nc2c1CSCC2 [XAV939] + COc1cc2c(Oc3ccc(NC(=O)C4(C(=O)Nc5ccc(F)cc5)CC4)cc3F)ccnc2cc1OCCCN1CCOCC1 [Foretinib] (partner 0.25 µM)
observed: 0.79
--
molecule: Oc1nc(-c2ccc(C(F)(F)F)cc2)nc2c1CSCC2 [XAV939] + COc1cccc2cc(-c3nc([C@H]4CC[C@H](C(=O)O)CC4)n4ncnc(N)c34)[nH]c12 [OSI-027] (partner 0.5 µM)
observed: 0.424
--
molecule: Oc1nc(-c2ccc(C(F)(F)F)cc2)nc2c1CSCC2 [XAV939] + CS(=O)(=O)N1CCN(Cc2cc3nc(-c4cccc5[nH]ncc45)nc(N4CCOCC4)c3s2)CC1 [Pictilisib] (partner 1 µM)
observed: 0.386
--
molecule: C=C1C(=O)O[C@@H](CCCCCCCC)[C@@H]1C(=O)O [C-75] + N=C(N)NC(=N)NCCc1ccccc1 [Phenformin] (partner 250 µM)
observed: 0.487
--
molecule: C=C1C(=O)O[C@@H](CCCCCCCC)[C@@H]1C(=O)O [C-75] + NC(=O)Nc1cc(-c2cccc(F)c2)sc1C(=O)N[C@H]1CCCNC1 [AZD7762] (partner 0.2 µM)
observed: 0.469

###

# System: LCLC-103H
# measurement protocol: relative viability (nuclei count vs DMSO), 5 days (fraction); higher = more cells survive
# study conditions: first compound 0.01 µM
Listed here: items and their measured relative viability.

molecule: NC(=O)Nc1cc(-c2cccc(F)c2)sc1C(=O)N[C@H]1CCCNC1 [AZD7762] + C[C@@H](Oc1cc(-c2cnn(C3CCNCC3)c2)cnc1N)c1c(Cl)ccc(F)c1Cl [Crizotinib] (partner 1 µM)
relative viability: 1.15
//
molecule: NC(=O)Nc1cc(-c2cccc(F)c2)sc1C(=O)N[C@H]1CCCNC1 [AZD7762] + CC(=O)c1c(C)c2cnc(Nc3ccc(N4CCNCC4)cn3)nc2n(C2CCCC2)c1=O [Palbociclib] (partner 0.5 µM)
relative viability: 0.438
//
molecule: NC(=O)Nc1cc(-c2cccc(F)c2)sc1C(=O)N[C@H]1CCCNC1 [AZD7762] + N=C(N)NC(=N)NCCc1ccccc1 [Phenformin] (partner 250 µM)
relative viability: 0.376
//
molecule: NC(=O)Nc1cc(-c2cccc(F)c2)sc1C(=O)N[C@H]1CCCNC1 [AZD7762] + CS(=O)(=O)N1CCN(Cc2cc3nc(-c4cccc5[nH]ncc45)nc(N4CCOCC4)c3s2)CC1 [Pictilisib] (partner 1 µM)
relative viability: 0.659

###

# Test system: NCI-H596
# measurement protocol: relative viability (nuclei count vs DMSO), 5 days (fraction); higher = more cells survive
# study conditions: first compound 0.8 µM
Lab note: compare relative viability with 1, writing 1 if less and -1 if equal or more.

molecule: Oc1nc(-c2ccc(C(F)(F)F)cc2)nc2c1CSCC2 [XAV939] + CS(=O)(=O)CCNCc1ccc(-c2ccc3ncnc(Nc4ccc(OCc5cccc(F)c5)c(Cl)c4)c3c2)o1 [Lapatinib] (partner 2 µM)
study system: NCI-H596
group: -1
//
molecule: C=C1C(=O)O[C@@H](CCCCCCCC)[C@@H]1C(=O)O [C-75] + CCNC(=O)c1noc(-c2cc(C(C)C)c(O)cc2O)c1-c1ccc(CN2CCOCC2)cc1 [Luminespib] (partner 0.01 µM)
study system: NCI-H596
group: 1
//
molecule: Oc1nc(-c2ccc(C(F)(F)F)cc2)nc2c1CSCC2 [XAV939] + COc1cc2c(Oc3ccc(NC(=O)C4(C(=O)Nc5ccc(F)cc5)CC4)cc3F)ccnc2cc1OCCCN1CCOCC1 [Foretinib] (partner 0.25 µM)
study system: NCI-H596
group: 1
//
molecule: C=C1C(=O)O[C@@H](CCCCCCCC)[C@@H]1C(=O)O [C-75] + O=C(c1cc(Cc2n[nH]c(=O)c3ccccc23)ccc1F)N1CCN(C(=O)C2CC2)CC1 [Olaparib] (partner 8 µM)
study system: NCI-H596
group: 1

Reference source for all entries: the supplement of paper PMC10307832
